# experiment summary: Half life in male BALB/c mice administered with 35 mg/kg, po
# Type: ADME, organism-based
# Set-up: dose 35 mg/kg, route oral
# measurement parameters: mouse, in vivo
readout name: half-life (min)
One number for each entry, in min.

Returns the measured half-life for the input compound. Input: CCCc1c(OCCCOc2ccc3c(ccn3CC(=O)[O-])c2)ccc2c(C(F)(F)F)noc12.[Na+]
468

---

# experimental target: Peroxisome proliferator-activated receptor alpha (Homo sapiens)
# Sequence (Q07869 whole entry): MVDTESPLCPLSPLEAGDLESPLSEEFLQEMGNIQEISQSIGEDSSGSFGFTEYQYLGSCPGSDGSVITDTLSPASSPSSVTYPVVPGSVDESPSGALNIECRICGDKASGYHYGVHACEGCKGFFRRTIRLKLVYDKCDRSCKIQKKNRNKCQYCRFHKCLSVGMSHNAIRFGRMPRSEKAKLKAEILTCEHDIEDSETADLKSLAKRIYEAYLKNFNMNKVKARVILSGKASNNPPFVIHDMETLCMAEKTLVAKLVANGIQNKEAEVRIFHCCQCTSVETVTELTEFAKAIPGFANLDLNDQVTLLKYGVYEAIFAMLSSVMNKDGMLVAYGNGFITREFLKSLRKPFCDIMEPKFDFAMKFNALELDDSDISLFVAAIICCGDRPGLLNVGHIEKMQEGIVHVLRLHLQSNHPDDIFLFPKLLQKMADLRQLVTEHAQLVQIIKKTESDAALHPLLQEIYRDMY
# experiment summary: Functional activity at human PPAR alpha in Huh7 cells by transactivation assay
readout name: pEC50
Give bare numbers, as −log10 of the molar value.

Worked cases, pEC50 given:
CCCc1c(OCCCOc2ccc3c(ccn3CC(=O)O)c2)ccc2c(C(=O)C(F)(F)F)c[nH]c12; 5.66
CCCc1c(OCCCOc2cccc3c2ccn3CC(=O)O)ccc2c(-c3ccccc3)noc12; 8.70
CCCc1c(OCCCOc2ccc3ccn(CC(=O)O)c3c2)ccc2c(C(F)(F)F)noc12; 5.74
CCCc1c(OCCCOc2ccc3c(ccn3Cc3nn[nH]n3)c2)ccc2c(C(F)(F)F)noc12; 6.32

Dear colleague, could you send me pEC50 for each of the items below? Thanks.
1. CCCc1c(OCCCOc2ccc3c(ccn3CC(=O)O)c2)ccc2c(C#N)c[nH]c12
2. CCCc1c(OCCCOc2ccc3c(ccn3CC(=O)O)c2)ccc2c(-c3ccccc3)noc12
3. CCCc1c(OCCCOc2cccc3c2ccn3CC(=O)O)ccc2c(-c3ccccc3)coc12
4. CCCc1c(OCCCOc2ccc3c(ccn3CC(=O)O)c2)ccc2c(C(F)(F)F)noc12

5.28
7.74
6.77
7.85

Please look up its pEC50: CCCc1c(OCCCOc2cccc3c2ccn3CC(=O)O)ccc2cc(-c3ccccc3)[nH]c12
6.30
